# protocol details: soluble on expression in E. coli; label from the status in PepcDB or PDB records
quantity name: soluble on expression in E. coli

residue codes	soluble on expression in E. coli
SKVKEGKDLIVGLDIGTSKIVAIVAEMKPEGGFEIIGLGSHLSRGLKKGVVVNIEATVNAIQRALEEVELMAGCRISEVYAGIAGNHIRGFNSHGMVAIKDKEVTQADVEKVMETAKAVNIPADQ	not soluble
GHVLLLRPVRSEDVEPLQGVFALMGPQEIRERFAPSATGSSERFQQLTNPNAKREIVLVAAEQLPPGEAMIAALARASIVPNSRHAEYIILVSSFVSGQGLGRQLLRKLVKWARGKYLDHLYGDILERNRPMLELAESLGFQRESHPESPDLVRMTLKL	not soluble
MAHHHHHHMRCVRRSVLGSRGLKRPMFNYTRIFSMGITQHTFTGALLEDLRAGGCCGDQTEDNPGSSLRHGELDHFESPEAEAAHVEKVNTVVDDLFSRMPLPEDPMGAALAPTKEEMEEKAEWDVLKEVVRERYQRKIALKEAERVRIDKAMQHYRVDKDIEGGVSGVTGATGDSEKIRKKIERMKQEIVELERRLEAANHDDNL	not soluble
MKKTKVHLISGFLGTGKTTALKSLMAQKDPNEKWVIIVNEFGEIGIDGAVLSDNGIPVAEIAGGCLCCTAGPQMGVTVQKMLRDAKPDRLMIEASGLAHAASVIDELKTKPLDSLLEIGAVFTVVDPRQFINPDYAQQALYKDQIGICDVLVASKTDLCTPEQLAEFHDKAAKLFPPKAKVVEVQNAQLDIQWLDIPVIEKSRYRLKALPDNTMGFQSQGFTFPAGRDFDGEKLTNFFNDLPNMTEGLVRAKGVFQVLGTWVWLNWVDGQWGANQVSWRRDSRFELIAKSFDADLIEQKLKDALELEHHHHHH	not soluble
MPNKRNVELLATLKENLERAQGSFFLVNYQGLPAKETHALRQALKQNGARLFVAKNTLIRLALKELGLPELDGLQGPSAVVFYEDPVAAAKTLVQFAKSNPKGIPQVKSGLLQGQILTAKDVEALAELPTMDELRAELVGVLQAPMAELVGVLGGVARELVGILEAYAEKKAA	soluble

Request: Please give the measured soluble on expression in E. coli for this sequence: MSLAEKLPFRVKKHQSKLLKKLGETDMQLQYNKVDNLKIVVSKINGMIIHPGETFSFCKTVGLPTRKKGYKEGMELSFGKPRAGVGGGICQSTNLLHWLALHSPLTITERHHHSIDPFPDNGRVLPWASGAAVFYNYIDFQLTNDTSWAFQINLWLTDKLLEGEIRVNEELDFAYHVKERNHRFIKKEGAYFRTNEIWRHKIAKFRSGALLEEELMYKNYGKVMYVPKTYQEGHHHHHH
Result: soluble

Request: Can you check MAGDPMRTYENKEELKAEIEKTFEKYILEFDNIPENLKDKRADEVDRTPAENLAYQVGWTNLVLKWEEDERKGLQVKTPSDKFKWNQLGELYQWFTDTYAHLSLQELKAKLNENINSISAMIDSLSEEELFEPHMRKWADEATKTATWEVYKFIHVNTVAPFGTFRTKIRKWKKIVLLEHHHHHH next?
Result: soluble

----------
# protocol details: soluble on expression in E. coli; label from the status in PepcDB or PDB records

residue codes	soluble on expression in E. coli
MPEKYTTPYPARRIHSDGRAEDTEVLLAKECPVKLFLDGKQFTTLFASPLELKELAVGHLITEGILSFKEIAGVEVEGNEVHILTLKGKHPIQDESSRPAGGETKKQIFVNSDAVFDPEALFEGIAYLESDTYKLTRGTHLAALIDKKGKLAVQIVDVGRHNAVDKVVGAAFLRMIDLSQHYMLSTGRQPAYMVTKAARAGIPLVATKAMPFDSGVEAAKKANLCLVGQLRKESMLVFTNEWRVRIAAALEHHHHHH	not soluble
MAHHHHHHMVLLKILKKIKDNKRNLRILILGLDNAGKTTIIKRLLGEDIYSVSPTFGFNIETLEFGNNILNIWDIGGQKSIRHFWKNYYEDVDGIIFVVDSTDLFRLQLCSFELKQILKEERLYGSTLLILSNKVDIDKSLTINQIVEILKLNEMNMDRHWCINECSAFSGKGLLKSFMWLIDDITDRIDS	not soluble
SRMVLRGLLSEHPKKQMIPVIIYGAGRSGRQLLEAVKQMREYSAAAFVDDDPKLWHTVIYDLAVYQPDAIAFLIERYGVEKILLAIPGATQEQRRRIINKLEAYPCEVLTIPGMKDLMDGKISIGTLKKISVSDLLGRDSVAPDDRLMSADIEGKTVMVTGAGGSIGSELCRQIIRRRPEKLLLFELSEFALYAIEKELRETCIQKRLDTEILPFLGSVQNRTLLE	not soluble
